- TEST DETAILS: Specific Surface Area by BET nitrogen adsorption (Coulter SA3100)
- Assay type: physicochemical
- RUN CONDITIONS: mean of three determinations
Structures can show the parent of a compound that is named as a salt.
The label rule met is reserved for SSA (Specific Surface Area) strictly under 10 m^2/g; rule not met covers values equal to or above it.

INPUT: Strictly below 10 m^2/g: is that where SSA (Specific Surface Area) of COc1ccc(C[C@@H](C)NC[C@H](O)c2ccc(O)c3[nH]c(=O)ccc23)cc1 [carmoterol hydrochloride batch 3] sits?
OUTPUT: rule not met

INPUT: Strictly below 10 m^2/g: is that where SSA (Specific Surface Area) of COc1ccc(C[C@@H](C)NC[C@H](O)c2ccc(O)c3[nH]c(=O)ccc23)cc1 [carmoterol hydrochloride batch 1] sits?
OUTPUT: rule met
